# credit: PubChem BioAssay (NCI)

Here, each record is paired with measured growth data.
Test system: CCRF-CEM leukemia
Experimental Details: NCI-60 one-dose screen, 48 h (100 = growth as untreated, 0 = no growth, -100 = all killed)
Assay Setup: 10 µM unless noted
About 83,000 compounds went through this panel and 20% of them were active in at least one assay; those are over-represented in the sample as a whole.
Give your result in % as a bare value.

Item Smiles	Unit String	growth
CC(=O)Oc1ccccc1C(=O)N=C1[Se]CCCN1C(=O)c1ccccc1OC(C)=O	%	22.1
Cc1[nH]c(C(=O)Nc2ccc(C(=O)NCCN)cc2OC(C)C)c(Cl)c1Cl	%	-10.5
Cc1nc2ccccc2c(/C=C/c2ccc(Cl)cc2)c1C(=O)/C=C/c1cccs1	%	59.6

**Query** Identify growth associated with the compound `O=C(N/N=C/c1c(Cl)cccc1Cl)c1ccc(C(F)(F)F)nc1Nc1cccc(C(F)(F)F)c1`
**Result** -8.45

**Query** Supply recorded growth for `COc1ccc(OC)c(/C=C2\Oc3cc(OCCN4CCC(Cc5ccccc5)CC4)ccc3C2=O)c1` here.
**Result** 75.6

**Query** Indicate its recorded growth; the compound in question is `CCCCCCCCCCCCCCCCCCOc1ccccc1CC(=O)OCC[N+](CC)(CC)CC`
**Result** 15.7
